Origin of measurements: PubChem BioAssay AID1745844

- Tested on: rodent lifetime carcinogenesis bioassay, tumor incidence TD50
- Assay details: carcinogenic potency in animals, long-term in vivo studies, CPDB compilation (AID 1745844)
- Assay setup: mouse; strain DDY; males; in feed; site: liver; lesion: hepatocellular carcinoma; dosed 81 weeks; study length 81 weeks
Reported metric: TD50

Return the recorded TD50 value; entry: "Cc1ccc(N=Nc2c(O)c(S(=O)(=O)O)cc3cc(S(=O)(=O)O)ccc23)c(C)c1"
659 mg/kg/day

---

- System: rodent lifetime carcinogenesis bioassay, tumor incidence TD50
- Assay details: carcinogenic potency in animals, long-term in vivo studies, CPDB compilation (AID 1745844)
- Assay setup: rat; strain Fischer 344; males; by gavage; site: colon; lesion: adenocarcinoma; dosed 37 weeks; study length 55 weeks
Reported metric: TD50 (mg/kg/day)
Supply the numeric figure in mg/kg/day, leaving out any unit text.

Return the recorded TD50 value; entry: "NC(=O)N(CCO)N=O"
0.983

---

- Tested on: rodent lifetime carcinogenesis bioassay, tumor incidence TD50
- Assay details: carcinogenic potency in animals, long-term in vivo studies, CPDB compilation (AID 1745844)
- Assay setup: rat; strain Donryu; females; in drinking water; site: several sites; sites named in the paper; lesion: papilloma; dosed 51 weeks; study length 60 weeks
Reported metric: TD50 (mg/kg/day)
Supply the numeric figure in mg/kg/day, leaving out any unit text.

Determine reported TD50 for "CCOC(=O)N(CC)N=O" ; test system: rodent lifetime carcinogenesis bioassay, tumor incidence TD50.
0.339

---

- Tested on: rodent lifetime carcinogenesis bioassay, tumor incidence TD50
- Assay details: carcinogenic potency in animals, long-term in vivo studies, CPDB compilation (AID 1745844)
- Assay setup: rat; strain Fischer 344; females; in drinking water; site: thyroid gland; lesion: follicular-cell tumor; dosed 30 weeks; study length 104 weeks
Reported metric: TD50

Return the recorded TD50 value; entry: "CCN(N=O)C(=O)NCC(C)=O"
0.804 mg/kg/day

---

- Tested on: rodent lifetime carcinogenesis bioassay, tumor incidence TD50
- Assay details: carcinogenic potency in animals, long-term in vivo studies, CPDB compilation (AID 1745844)
- Assay setup: mouse; strain B6C3F1; males; inhaled; site: lung; lesion: alveolar/bronchiolar carcinoma + adenocarcinoma; dosed 82 weeks; study length 104 weeks
Reported metric: TD50 (mg/kg/day)
Supply the numeric figure in mg/kg/day, leaving out any unit text.

Return the recorded TD50 value; entry: "C=CC=C"
32.4

---

- Tested on: rodent lifetime carcinogenesis bioassay, tumor incidence TD50
- Assay details: carcinogenic potency in animals, long-term in vivo studies, CPDB compilation (AID 1745844)
- Assay setup: rat; strain Sprague-Dawley; females; in feed; site: kidney; lesion: tubular-cell adenocarcinoma; dosed 46 weeks; study length 64 weeks
Reported metric: TD50

Return the recorded TD50 value; entry: "O=CNNc1nc(-c2ccc([N+](=O)[O-])o2)cs1"
33.9 mg/kg/day

---

- Test system: rodent lifetime carcinogenesis bioassay, tumor incidence TD50
- Assay details: carcinogenic potency in animals, long-term in vivo studies, CPDB compilation (AID 1745844)
- Assay setup: mouse; strain Swiss albino; females; in drinking water; site: lung; lesion: adenocarcinoma; dosed 102 weeks; study length 102 weeks
Reported metric: TD50 (mg/kg/day)
Supply the numeric figure in mg/kg/day, leaving out any unit text.

Determine reported TD50 for "NNC(=O)c1cccnc1" ; test system: rodent lifetime carcinogenesis bioassay, tumor incidence TD50.
511

---

- Tested on: rodent lifetime carcinogenesis bioassay, tumor incidence TD50
- Assay details: carcinogenic potency in animals, long-term in vivo studies, CPDB compilation (AID 1745844)
- Assay setup: rat; strain Fischer 344; females; in drinking water; site: esophagus; lesion: carcinoma; dosed 50 weeks; study length 114 weeks
Reported metric: TD50

Return the recorded TD50 value; entry: "CN(N=O)c1ccccc1"
0.458 mg/kg/day

---

- Tested on: rodent lifetime carcinogenesis bioassay, tumor incidence TD50
- Assay details: carcinogenic potency in animals, long-term in vivo studies, CPDB compilation (AID 1745844)
- Assay setup: rat; strain Fischer 344; females; in feed; site: cecum + colon + kidney + liver + rectum + urinary bladder; lesion: polypoid adenoma + adenocarcinoma + tubule adenoma + tubule carcinoma + hepatocholangiocarcinoma + hepatocellular adenoma + hepatoce; dosed 103 weeks; study length 104 weeks
Reported metric: TD50 (mg/kg/day)
Supply the numeric figure in mg/kg/day, leaving out any unit text.

Return the recorded TD50 value; entry: "Nc1c(Br)cc(Br)c2c1C(=O)c1ccccc1C2=O"
31

---

- System: rodent lifetime carcinogenesis bioassay, tumor incidence TD50
- Assay details: carcinogenic potency in animals, long-term in vivo studies, CPDB compilation (AID 1745844)
- Assay setup: mouse; strain XVII/G; females; in feed; site: lung; lesion: one or several types; types not named; dosed 104 weeks; study length 104 weeks
Activity calls are given as the source filed them. The rule behind the calls is not given here.
Reported metric: TD50

Return the recorded TD50 value; entry: "Oc1c(Cl)cc(Cl)c(Cl)c1Cc1c(O)c(Cl)cc(Cl)c1Cl"
33.4 mg/kg/day (inactive)

---

- Tested on: rodent lifetime carcinogenesis bioassay, tumor incidence TD50
- Assay details: carcinogenic potency in animals, long-term in vivo studies, CPDB compilation (AID 1745844)
- Assay setup: rat; strain Wistar; males; in feed; site: forestomach; lesion: squamous-cell carcinoma; dosed 52 weeks; study length 52 weeks
Reported metric: TD50 (mg/kg/day)
Supply the numeric figure in mg/kg/day, leaving out any unit text.

Determine reported TD50 for O=P(O)(OCC(Br)CBr)OCC(Br)CBr (stereo unspecified) ; test system: rodent lifetime carcinogenesis bioassay, tumor incidence TD50.
129

---

- Tested on: rodent lifetime carcinogenesis bioassay, tumor incidence TD50
- Assay details: carcinogenic potency in animals, long-term in vivo studies, CPDB compilation (AID 1745844)
- Assay setup: rat; strain Fischer 344; females; in feed; site: multiple organs; lesion: leukemia + lymphoma; dosed 92 weeks; study length 104 weeks
Reported metric: TD50

Determine reported TD50 for "C/C=C(/C)C(=O)O[C@H]1CCN2CC=C(COC(=O)[C@@](O)([C@H](C)OC)C(C)(C)O)[C@H]12" ; test system: rodent lifetime carcinogenesis bioassay, tumor incidence TD50.
0.325 mg/kg/day

---

- Test system: rodent lifetime carcinogenesis bioassay, tumor incidence TD50
- Assay details: carcinogenic potency in animals, long-term in vivo studies, CPDB compilation (AID 1745844)
- Assay setup: rat; strain Fischer 344; females; in drinking water; site: esophagus; lesion: several types; types named in the paper; dosed 50 weeks; study length 55 weeks
Reported metric: TD50

Determine reported TD50 for C=CCN(CC(O)CO)N=O (stereo unspecified) ; test system: rodent lifetime carcinogenesis bioassay, tumor incidence TD50.
0.825 mg/kg/day

---

- Test system: rodent lifetime carcinogenesis bioassay, tumor incidence TD50
- Assay details: carcinogenic potency in animals, long-term in vivo studies, CPDB compilation (AID 1745844)
- Assay setup: mouse; strain B6C3F1; males; inhaled; site: forestomach; lesion: squamous-cell carcinoma; dosed 26 weeks; study length 104 weeks
Reported metric: TD50 (mg/kg/day)
Supply the numeric figure in mg/kg/day, leaving out any unit text.

Return the recorded TD50 value; entry: "C=CC=C"
136

---

- Test system: rodent lifetime carcinogenesis bioassay, tumor incidence TD50
- Assay details: carcinogenic potency in animals, long-term in vivo studies, CPDB compilation (AID 1745844)
- Assay setup: rat; strain Fischer 344; males; in drinking water; site: skin; lesion: basal-cell adenoma + basal-cell carcinoma; dosed 97 weeks; study length 97 weeks
Reported metric: TD50

Return the recorded TD50 value; entry: "COc1cc(-c2ccc(N=Nc3c(S(=O)(=O)O)cc4cc(S(=O)(=O)O)cc(N)c4c3O)c(OC)c2)ccc1N=Nc1c(S(=O)(=O)O)cc2cc(S(=O)(=O)O)cc(N)c2c1O"
19.6 mg/kg/day

---

- Tested on: rodent lifetime carcinogenesis bioassay, tumor incidence TD50
- Assay details: carcinogenic potency in animals, long-term in vivo studies, CPDB compilation (AID 1745844)
- Assay setup: rat; strain Fischer 344; females; in drinking water; site: uterus; lesion: one or several types; types not named; dosed 30 weeks; study length 104 weeks
Reported metric: TD50

Observe how each entry below is paired with its result.
{"Smiles record": "CCN(N=O)C(=O)NCC(C)=O", "Reported metric": "TD50", "Reported measurement": "1.49 mg/kg/day"}
{"Smiles record": "CCN(N=O)C(=O)NCCO", "Reported metric": "TD50", "Reported measurement": "0.972 mg/kg/day"}

Okay, now this compound:
Return the recorded TD50 value; entry: "O=NN(CCO)C(=O)NCCCl"
0.669 mg/kg/day

---

- Tested on: rodent lifetime carcinogenesis bioassay, tumor incidence TD50
- Assay details: carcinogenic potency in animals, long-term in vivo studies, CPDB compilation (AID 1745844)
- Assay setup: mouse; strain Swiss; males; inhaled; site: any site (literature study); lesion: several types; types named in the paper; dosed 30 weeks; study length 77 weeks
Reported metric: TD50 (mg/kg/day)
Supply the numeric figure in mg/kg/day, leaving out any unit text.

Return the recorded TD50 value; entry: "C=CCl"
26.1
